system_under_test: T1, acid β-glucosidase (GCase), Velaglucerase alfa (human, UniProt P04062 40-536, Chain 1 is a glycoprotein with N-linked, mannose-terminated oligosaccharides, which the letters do not carry.)
T1 construct: also called free GCase; human GCase
T1 sequence: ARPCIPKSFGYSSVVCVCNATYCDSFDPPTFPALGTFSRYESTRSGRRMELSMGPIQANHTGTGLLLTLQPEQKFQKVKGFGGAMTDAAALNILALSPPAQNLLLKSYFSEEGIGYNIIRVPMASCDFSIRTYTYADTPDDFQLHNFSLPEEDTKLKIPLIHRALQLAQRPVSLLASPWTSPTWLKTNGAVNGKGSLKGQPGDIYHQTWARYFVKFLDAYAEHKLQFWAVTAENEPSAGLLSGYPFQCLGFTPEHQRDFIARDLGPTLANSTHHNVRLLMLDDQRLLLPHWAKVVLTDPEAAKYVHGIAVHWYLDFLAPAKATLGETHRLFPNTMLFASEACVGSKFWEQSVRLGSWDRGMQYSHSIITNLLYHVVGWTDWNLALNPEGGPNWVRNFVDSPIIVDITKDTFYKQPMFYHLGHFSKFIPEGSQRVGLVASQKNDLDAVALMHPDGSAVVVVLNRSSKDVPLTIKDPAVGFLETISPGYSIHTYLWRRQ
measurement_protocol: microscale thermophoresis (MST); unlabelled GCase titrated against NBD-PS labelled SapC-DOPS, CP buffer pH 5.6
measurement_label: Kd (nM)
// return numeric value only (unit: nM, not printed)

The binder listed as SapC-DOPS nanovesicles (saposin C with dioleoylphosphatidylserine) (other) SDVYCEVCEFLVKEVTKLIDNNKTEKEILDAFDKMCSKLPKSLSEECQEVVDTYGSSILSILLEEVSPELVCSMLHLCSG has a reported Kd of 29.4

All values here come from patent US20230103407A1.
